Assignment: determine reported combination Emax for the given compounds.
- Test system: EN (Endometrial Carcinoma)
- TEST NAME: combination Emax (second highest fraction inhibited in the dose matrix, 72 h); higher = more inhibition; extreme values may be limits of the assay

Lookup: Quick one: combination Emax of CC1(C)CCC(CN2CCN(c3ccc(C(=O)NS(=O)(=O)c4ccc(NCC5CCOCC5)c([N+](=O)[O-])c4)c(Oc4cnc5[nH]ccc5c4)c3)CC2)=C(c2ccc(Cl)cc2)C1 [Venetoclax] + CCN(CCO)CCCOc1ccc2c(Nc3cc(CC(=O)Nc4cccc(F)c4)[nH]n3)ncnc2c1 [AZD2811] (first compound max 1 µM, 7x7, partner max 1 µM) ?
Found: 0.399

Lookup: State the recorded combination Emax for this entry: Cc1cc2ncnn2cc1Nc1ncc2c(n1)n(C1CCOCC1)c(=O)n2C [AZD7648] + COc1cc([C@@H]2c3cc4c(cc3[C@@H](O[C@@H]3O[C@@H]5CO[C@@H](C)O[C@H]5[C@H](O)[C@H]3O)[C@H]3COC(=O)[C@H]23)OCO4)cc(OC)c1O [Etoposide] (first compound max 10 µM, 7x7, partner max 10 µM)
Found: 0.481
